assayed_system: XPNPEP1 (Homo sapiens (Human))
Sequence (Q9NQW7 whole entry): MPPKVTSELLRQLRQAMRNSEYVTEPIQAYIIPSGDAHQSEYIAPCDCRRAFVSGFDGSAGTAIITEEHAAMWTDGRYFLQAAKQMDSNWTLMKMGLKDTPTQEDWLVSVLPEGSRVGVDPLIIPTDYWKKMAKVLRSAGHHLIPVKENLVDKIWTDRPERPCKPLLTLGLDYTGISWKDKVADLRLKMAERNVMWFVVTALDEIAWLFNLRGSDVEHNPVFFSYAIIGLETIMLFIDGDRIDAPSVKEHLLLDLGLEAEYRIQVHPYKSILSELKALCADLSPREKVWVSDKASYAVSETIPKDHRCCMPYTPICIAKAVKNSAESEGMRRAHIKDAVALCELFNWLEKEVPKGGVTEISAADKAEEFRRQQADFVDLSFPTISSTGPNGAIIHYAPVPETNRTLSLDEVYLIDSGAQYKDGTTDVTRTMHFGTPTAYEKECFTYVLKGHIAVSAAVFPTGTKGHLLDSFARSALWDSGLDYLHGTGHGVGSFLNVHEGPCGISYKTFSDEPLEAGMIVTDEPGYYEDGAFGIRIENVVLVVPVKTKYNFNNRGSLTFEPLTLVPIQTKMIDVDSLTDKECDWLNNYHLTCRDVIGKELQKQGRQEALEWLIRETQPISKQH
pIC50: −log10 of the molar value.
Class Y: pIC50 at least 4. Class N: pIC50 below 4.

QUERY: Hi, just wondering whether COC(=O)[C@@H]1CC2(CC2)CN1C(=O)[C@@H](O)[C@H](N)CC(C)C shows pIC50 of 4 or higher.
RESULT: N

QUERY: Does pIC50 meet or surpass 4 for COC(=O)[C@@H]1CCCN1C(=O)[C@@H](O)[C@H](N)Cc1ccccc1 ?
RESULT: N

QUERY: Evaluate CC(C)CCNC(=O)[C@H](CC(C)C)NC(=O)[C@@H]1CCCN1C(=O)[C@@H](O)[C@H](N)CC(C)C : pIC50 at minimum 4?
RESULT: Y

QUERY: Given the entry CC[C@H](C)[C@H](NC(=O)[C@@H]1CCCN1C(=O)[C@@H](O)[C@H](N)CC(C)C)C(=O)OC , answer whether its pIC50 meets or surpasses 4.
RESULT: Y

QUERY: Assess whether reported pIC50 for COC(=O)[C@H](Cc1ccccc1)NC(=O)[C@@H]1CCCN1C(=O)[C@@H](O)[C@H](N)CC(C)C sits at 4 or higher.
RESULT: Y

QUERY: Identify whether the reported pIC50 of the following compound is 4 or greater: COC(=O)[C@@H]1C[C@H](F)CN1C(=O)[C@@H](O)[C@H](N)CC(C)C
RESULT: Y

QUERY: Assess whether reported pIC50 for CC(C)C[C@H](NC(=O)[C@@H]1CCCN1C(=O)[C@@H](O)[C@H](N)CC(C)C)C(=O)N(C)C sits at 4 or higher.
RESULT: Y

QUERY: State whether the measured pIC50 reaches 4, counting equality as reaching it, for COC(=O)[C@@H](NC(=O)[C@@H]1CCCN1C(=O)[C@@H](O)[C@H](N)CC(C)C)C(C)C
RESULT: Y

QUERY: Check if pIC50 >= 4 (inclusive). Item: CONC(=O)[C@@H]1CCCN1C(=O)[C@@H](O)[C@H](N)CC(C)C
RESULT: N

QUERY: Could you tell me if the measured pIC50 of COC(=O)[C@H](CC(C)C)NC(=O)[C@@H]1CCCN1C(=O)[C@@H](O)[C@H](N)CC(C)C reaches 4 or more?
RESULT: Y

QUERY: Entry C[C@H](NC(=O)[C@@H]1CCCN1C(=O)[C@@H]1CCCN1C(=O)[C@@H](O)[C@H](N)Cc1ccccc1)C(N)=O [Apstatin, apstatin, reference compound] : is its pIC50 no less than 4?
RESULT: Y

QUERY: Given COC(=O)[C@@H]1CCCN1C(=O)[C@@H](O)[C@H](N)c1ccco1 , state whether its pIC50 is at least 4.
RESULT: Y

QUERY: Does CC(C)C[C@H](NC(=O)[C@@H]1CCCN1C(=O)[C@@H](O)[C@H](N)CC(C)C)C(=O)NCCc1ccc2ccccc2c1 have a reported pIC50 of at least 4?
RESULT: Y

QUERY: Reported pIC50 reaches at least 4 for CC(C)C[C@@H](N)[C@H](O)C(=O)N1CCCC1 ?
RESULT: Y

QUERY: Test whether the compound COC(=O)[C@@H]1CCCN1C(=O)[C@@H](O)[C@H](N)C(C)C records pIC50 of 4 or higher.
RESULT: N
